# Tested on: UACC-62
# assay_procedure: Cytotoxicity against human UACC62 cells
# Assay type: functional
Assign labels as follows, please: Condition met for GI50 below 20 µM; Condition not met for GI50 equal to or exceeding 20 µM.

These solved cases illustrate the format of a correct answer.
{"smiles_record": "O=C1c2cc(-c3ccccc3)ccc2-c2c1c1ccc([N+](=O)[O-])cc1c(=O)n2CCCBr", "assigned_category": "Condition not met"}
{"smiles_record": "CCc1ccc2c(c1)C(=O)c1c-2n(CCCN=[N+]=[N-])c(=O)c2cc(OC)c(OC)cc12", "assigned_category": "Condition not met"}
{"smiles_record": "COc1cc2c3c(n(CCCBr)c(=O)c2cc1OC)-c1ccc(F)cc1C3=O", "assigned_category": "Condition met"}

Would you kindly verify if GI50 of [N-]=[N+]=NCCCn1c2c(c3ccc([N+](=O)[O-])cc3c1=O)C(=O)c1cc(F)ccc1-2 is strictly less than 20 µM?
Condition met

Say whether its GI50 is strictly beneath 20 µM. Entry: Cc1ccc2c(c1)C(=O)c1c-2n(CCCN=[N+]=[N-])c(=O)c2cc([N+](=O)[O-])ccc12
Condition not met

Find out if reported GI50 for CCOc1ccc2c(c1)C(=O)c1c-2n(CCCN=[N+]=[N-])c(=O)c2cc([N+](=O)[O-])ccc12 is less than 20 µM
Condition met

###

# Test system: UACC-62
# assay_procedure: Cytotoxicity against human UACC62 cells
# Format: functional
GI50 values, listed per item
Numbers only here, please. The scale is µM.

Solved cases (10 shown):
{"smiles_record": "COc1ccc2c(c1)C(=O)c1c-2n(CCCN)c(=O)c2cc(OC)c(OC)cc12", "experimental_value": 0.427}
{"smiles_record": "[N-]=[N+]=NCCCn1c2c(c3ccc([N+](=O)[O-])cc3c1=O)C(=O)c1ccccc1-2", "experimental_value": 29.5}
{"smiles_record": "CSc1ccc2c(c1)C(=O)c1c-2n(CCCBr)c(=O)c2cc([N+](=O)[O-])ccc12", "experimental_value": 3.09}
{"smiles_record": "Cc1ccc(S(=O)(=O)Oc2ccc3c(c2)C(=O)c2c-3n(CCCBr)c(=O)c3cc([N+](=O)[O-])ccc23)cc1", "experimental_value": 23.4}
{"smiles_record": "COc1ccc2c(c1)C(=O)c1c-2n(CCCCl)c(=O)c2cc(OC)c(OC)cc12", "experimental_value": 3.02}
{"smiles_record": "N#Cc1ccc2c(c1)C(=O)c1c-2n(CCCN=[N+]=[N-])c(=O)c2cc([N+](=O)[O-])ccc12", "experimental_value": 3.63}
{"smiles_record": "CCOc1ccc2c(c1)C(=O)c1c-2n(CCCBr)c(=O)c2cc([N+](=O)[O-])ccc12", "experimental_value": 5.75}
{"smiles_record": "COc1cc2c3c(n(CCCN=[N+]=[N-])c(=O)c2cc1OC)-c1ccc(C#N)cc1C3=O", "experimental_value": 12.3}
{"smiles_record": "[N-]=[N+]=NCCCn1c2c(c3ccc([N+](=O)[O-])cc3c1=O)C(=O)c1cc(I)ccc1-2", "experimental_value": 3.31}
{"smiles_record": "COc1cc2c3c(n(CCCN)c(=O)c2cc1OC)-c1ccccc1C3=O", "experimental_value": 2.88}

State the measured GI50 (UACC-62) of COc1cc2c3c(n(CCCN=[N+]=[N-])c(=O)c2cc1OC)-c1ccc([N+](=O)[O-])cc1C3=O
69.2

Write GI50 of COc1cc2c3c(n(CCCN)c(=O)c2cc1OC)-c1ccc(C#N)cc1C3=O ; system used: UACC-62
17
